B1: MNAT1 (parent)
chain: LAPIHKLEEALYEYQPLQIETYGP

- Variants of: B1
- Test Details: protein stability index of a GFP-peptide fusion (GPS, HEK-293T) (PSI 1-6); higher = more stable;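 note: lentivirally expressed fusions sorted by FACS into six bins by GFP to DsRed ratio, PSI derived from sequencing read proportions per bin multiplied by bin number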
- Condition: c terminus: a fixed tail appended
Each record here notes measured protein stability index.

In the examples that follow, each entry is paired with its recorded protein stability index.
| Mutant Id | Quantity Measured | Reported |
| --- | --- | --- |
| L11R | protein stability index | 2.77 |
| Y14S | protein stability index | 3.36 |

Note protein stability index for the variant shown: `G23M`
2.17

Note protein stability index for the variant shown: `Y12A`
1.27

Note protein stability index for the variant shown: `Y14E`
3.43

Note protein stability index for the variant shown: `P16E`
2.67
